Each entry below carries its reported TGI.
Tested on: OVCAR-3 ovarian
TEST: NCI tumour cell line growth inhibition, 48 h

> print(dat)
                                    compound  metric.name  observed.value
 1                   Nc1cc(N)cc(Cc2ccccc2)c1          TGI        > 100 µM
 2  CNC(=O)/C(=C/c1ccc(OC)cc1)c1cc(OC)c(OC)c(OC)c1          TGI          2.5 µM
 3                Cc1ncc(COP(=O)(O)O)c(C)c1O          TGI        > 100 µM
 4  O=C1Nc2ccccc2/C1=N/N1C(=O)/C(=C/c2ccccc2S)N=C1c1ccccc1          TGI        > 100 µM
 5  CCOC(=O)C(C)c1nc2cc(C(F)(F)F)ccc2[nH]c1=O (stereo not given)          TGI        > 100 µM
 6  COc1cc(/C=C2\CC(C)C/C(=C\c3ccc(O)c(OC)c3)C2=O)ccc1O (stereo not given)          TGI         6.47 µM
 7   C/C(=C(/C)c1cc[n+](C)cc1)c1cc[n+](C)cc1          TGI         > 75 µM
 8     COc1ccc(-c2cc(=O)c3ccc(F)cc3[nH]2)cc1          TGI        > 100 µM
 9  CC(C)N(C(=O)C12C3(C(=O)C(C)(C)C)C4C5(C#N)C3C1(C(=O)C(C)(C)C)C5C42C(=O)C(C)(C)C)C(C)C (stereo not given)          TGI        > 100 µM
10  Cc1[nH]c(=O)nc(N/N=C/c2ccc(Cl)cc2)c1C(=O)Nc1ccc(Cl)cc1          TGI         35.6 µM

Input: Entry `C=C(C[C@@H](O)[C@H](C)NC(=O)OCc1ccccc1)C(=O)OC(C)(C)C` : reported TGI = ?
Output: > 100 µM

Input: Same thing, different compound: `Cc1nc2ccccc2c(/C=C/c2ccccc2)c1C(=O)/C=C/c1ccc(Cl)cc1`
Output: 2.91 µM

Input: Same thing, different compound: CN1C(=O)C(C#N)C2C[C@@]1(C)Oc1ccccc12 (stereo not given in full)
Output: > 100 µM

Input: Same thing, different compound: `CCOc1ccc2c(c1)C(=O)c1c-2n(CCCN)c(=O)c2cc([N+](=O)[O-])ccc12`
Output: 1.75 µM

Input: Same thing, different compound: `OCCSCC/C(=N\N=C(/CCSCCO)c1ccccc1)c1ccccc1`
Output: > 100 µM
